Test summary: Apparent permeability of the compound in human Caco2 cells
Type: ADME, cell-based
Setup conditions: Caco-2
Outcome measure: Papp (×10⁻⁶ cm/s)
Value expressed in ×10⁻⁶ cm/s; do not type the unit.

stdin: Would you mind telling me what Papp value was observed for C[C@@H]1CCCN1CCCOc1ccc(C2=NNC(=O)CC2)cc1 ?
stdout: 11.4

stdin: Please give the result for C[C@@H]1CCCN1CCCOc1ccc(C2=NNC(=O)C(C)(C)C2)cc1 too.
stdout: 14

====

Test summary: Plasma protein binding in dog
Format: ADME, cell-free, Canis lupus familiaris
Setup conditions: read-out: PPB (converted)
Outcome measure: fraction unbound
Answer with the value's number alone.

stdin: Would you mind telling me what fraction unbound value was observed for C[C@@H]1CCCN1CCCOc1ccc(C2=NNC(=O)C(C)(C)C2)cc1 ?
stdout: 0.84

meta.source: ChEMBL document CHEMBL1932917
